- Assay Overview: acute toxicity in mice
- Run Parameters: mouse, in vivo, po, oxalate, read-out: acute toxicity LD50 p.o.
Assay Endpoint: LD50

The compound listed as CN(C)Cc1ccc(CSCCNC(=O)c2ccc(S(N)(=O)=O)cc2)o1.O=C(O)C(=O)O has a reported LD50 of > 1000 mg/kg

----------
- Target Desc: histamine H2 receptor (Cavia porcellus, UniProt P47747)
- Construct: guinea pig's enucleated atrium; from tissue; host or cells: guinea pig isolated ("enucleated") atrium
- Sequence (P47747 whole entry): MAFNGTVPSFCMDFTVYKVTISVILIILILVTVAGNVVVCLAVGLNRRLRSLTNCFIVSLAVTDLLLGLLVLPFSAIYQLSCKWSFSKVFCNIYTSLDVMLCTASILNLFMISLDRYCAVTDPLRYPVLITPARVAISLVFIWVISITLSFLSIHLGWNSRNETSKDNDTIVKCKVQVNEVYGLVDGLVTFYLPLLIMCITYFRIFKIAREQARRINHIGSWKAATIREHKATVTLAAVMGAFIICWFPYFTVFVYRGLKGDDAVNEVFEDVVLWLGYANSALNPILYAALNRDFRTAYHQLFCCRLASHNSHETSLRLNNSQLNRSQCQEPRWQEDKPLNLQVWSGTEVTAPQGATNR
- Assay Overview: inhibition of the palpitation number of guinea pig's enucleated atrium (histamine antagonism)
- Assay type: cell-based
- Run Parameters: compounds (I) as the oxalates
- Excerpt: The pA2 value is defined as a negative logarithm of the concentratio of the compound (I) required to shift the doseresponse of histamine to th high concentration side by 2fold. [Ariens, E.J., Molecular Pharmacology, (1964), Academic Press, New York and London].
Label rule met when Kb >= 900 nM; otherwise rule not met.

Below are worked cases with known answers.
INSERT INTO measurements (molecule, target_desc, discrete_label) VALUES
  ('CN(C)Cc1ccc(CSCCNC=O)o1 [Test No. 6]', 'histamine H2 receptor (Cavia porcellus, UniProt P47747)', 'rule met'),
  ('COC(=O)c1ccc(C(=O)NCCSCc2ccc(CN3CCCC3)s2)cc1', 'histamine H2 receptor (Cavia porcellus, UniProt P47747)', 'rule not met'),
  ('COC(=O)c1ccc(C(=O)NCCSCc2ccc(CN(C)C)o2)cc1 [Test No. 4]', 'histamine H2 receptor (Cavia porcellus, UniProt P47747)', 'rule not met'),
  ('Cc1cc(CSCCNC(=O)c2ccc(S(N)(=O)=O)cc2)sc1CN1CCCC1 [Test No. 10]', 'histamine H2 receptor (Cavia porcellus, UniProt P47747)', 'rule met'),
  ('CC=CC=CC(=O)NCCSCc1ccc(CN(C)C)o1 [Test No. 5]', 'histamine H2 receptor (Cavia porcellus, UniProt P47747)', 'rule met');

Prompt: Threshold query (Kb >= 900 nM) on Cc1cc(CSCCNC(=O)c2ccc([N+](=O)[O-])cc2)oc1CN1CCCC1 [Test No. 12]
Response: rule not met

Prompt: Is reported Kb greater than or equal to 900 nM here: CN(C)Cc1ccc(CSCCNC(=O)c2ccc(S(N)(=O)=O)cc2)o1 [Test No. 7]
Response: rule not met

Prompt: Evaluate CC(C)c1cc(CN2CCCC2)sc1CSCCNC(=O)c1cccnc1 [Test No. 11] : Kb at minimum 900 nM?
Response: rule not met
